As shown below, each of these compounds has a reported IC50 value.
testedOn: TNKS2 (Homo sapiens)
Sequence (Q9H2K2 1-1166): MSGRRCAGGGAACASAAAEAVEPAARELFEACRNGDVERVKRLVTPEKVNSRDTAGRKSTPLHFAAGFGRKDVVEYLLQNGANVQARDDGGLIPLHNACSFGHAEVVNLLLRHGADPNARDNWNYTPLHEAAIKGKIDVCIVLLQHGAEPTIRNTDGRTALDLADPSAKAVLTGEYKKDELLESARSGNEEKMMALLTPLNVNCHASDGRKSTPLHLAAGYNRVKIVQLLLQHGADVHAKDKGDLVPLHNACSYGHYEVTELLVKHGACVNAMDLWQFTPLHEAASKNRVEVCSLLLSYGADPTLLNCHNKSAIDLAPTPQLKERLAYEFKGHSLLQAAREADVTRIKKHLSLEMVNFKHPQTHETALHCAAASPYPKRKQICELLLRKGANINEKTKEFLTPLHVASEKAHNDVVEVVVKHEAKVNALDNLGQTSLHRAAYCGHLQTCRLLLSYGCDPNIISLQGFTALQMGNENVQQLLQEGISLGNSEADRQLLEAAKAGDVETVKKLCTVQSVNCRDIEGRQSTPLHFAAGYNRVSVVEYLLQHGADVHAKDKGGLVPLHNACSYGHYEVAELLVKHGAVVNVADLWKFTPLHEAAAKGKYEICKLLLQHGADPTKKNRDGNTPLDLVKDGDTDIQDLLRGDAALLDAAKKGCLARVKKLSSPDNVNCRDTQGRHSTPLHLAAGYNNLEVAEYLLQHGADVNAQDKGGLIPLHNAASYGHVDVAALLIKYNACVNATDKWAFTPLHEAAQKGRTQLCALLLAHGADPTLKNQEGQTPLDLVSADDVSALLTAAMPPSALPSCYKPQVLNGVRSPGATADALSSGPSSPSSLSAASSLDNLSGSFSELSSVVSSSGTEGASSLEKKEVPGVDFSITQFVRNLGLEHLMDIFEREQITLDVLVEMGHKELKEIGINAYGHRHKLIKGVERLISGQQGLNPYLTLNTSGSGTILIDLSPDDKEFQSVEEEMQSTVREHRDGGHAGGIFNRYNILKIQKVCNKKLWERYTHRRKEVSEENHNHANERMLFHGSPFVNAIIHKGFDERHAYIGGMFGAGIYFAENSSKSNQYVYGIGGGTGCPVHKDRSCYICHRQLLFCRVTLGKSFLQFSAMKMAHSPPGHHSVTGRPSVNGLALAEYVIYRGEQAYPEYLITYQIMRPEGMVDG
assayName: Modified TNKS2 Assay 2 (auto-parsylation, [3H]-NAD+ SPA)
Assay type: biochemical
experimentalContext: 6 nM TNKS2, 96 well

[
  {
    "compound": "CC1CCCCN1CCNC(=O)c1[nH]cnc1C(=O)Nc1ccc(NC(=O)c2ccc(F)cc2)cc1 (centres unmarked)",
    "relationalOperator": "=",
    "IC50 / nM": 180
  },
  {
    "compound": "CNC(=O)c1ncoc1C(=O)Nc1ccc(NC(=O)c2ccc(F)cc2Cl)cc1",
    "relationalOperator": "=",
    "IC50 / nM": 910
  },
  {
    "compound": "O=C(Nc1ccc(NC(=O)c2[nH]cnc2C(=O)NCCC2CCCC2)cc1)c1ccc(F)cc1Cl",
    "relationalOperator": ">",
    "IC50 / nM": 10000
  },
  {
    "compound": "O=C(Nc1ccc(NC(=O)c2nc[nH]c2C(=O)N[C@H]2CCNC2)cc1)c1ccc(F)cc1Cl",
    "relationalOperator": "=",
    "IC50 / nM": 70
  },
  {
    "compound": "O=C(Nc1ccc(NC(=O)c2nc[nH]c2C(=O)NCCCCN2CCCCC2)cc1)c1ccccc1Cl",
    "relationalOperator": "=",
    "IC50 / nM": 260
  },
  {
    "compound": "CNC(=O)c1nc[nH]c1C(=O)Nc1ccc(NC(=O)c2c(F)cc(F)cc2F)cc1",
    "relationalOperator": "=",
    "IC50 / nM": 540
  },
  {
    "compound": "C[C@@H]1CCCCN1CCNC(=O)c1[nH]cnc1C(=O)Nc1ccc(NC(=O)c2ccc(F)cc2Cl)cc1",
    "relationalOperator": "=",
    "IC50 / nM": 3
  },
  {
    "compound": "CC1CCCN(CCNC(=O)c2[nH]cnc2C(=O)Nc2ccc(NC(=O)c3ccc(F)cc3Cl)cc2)C1 (centres unmarked)",
    "relationalOperator": "=",
    "IC50 / nM": 2
  }
]

Recorded values, source patent US9884063B2.
